Measured inhibition values are reported for all entries that follow.
system: Alpha-2B adrenergic receptor (Homo sapiens) (UniProt P18089)
Sequence (P18089 whole entry): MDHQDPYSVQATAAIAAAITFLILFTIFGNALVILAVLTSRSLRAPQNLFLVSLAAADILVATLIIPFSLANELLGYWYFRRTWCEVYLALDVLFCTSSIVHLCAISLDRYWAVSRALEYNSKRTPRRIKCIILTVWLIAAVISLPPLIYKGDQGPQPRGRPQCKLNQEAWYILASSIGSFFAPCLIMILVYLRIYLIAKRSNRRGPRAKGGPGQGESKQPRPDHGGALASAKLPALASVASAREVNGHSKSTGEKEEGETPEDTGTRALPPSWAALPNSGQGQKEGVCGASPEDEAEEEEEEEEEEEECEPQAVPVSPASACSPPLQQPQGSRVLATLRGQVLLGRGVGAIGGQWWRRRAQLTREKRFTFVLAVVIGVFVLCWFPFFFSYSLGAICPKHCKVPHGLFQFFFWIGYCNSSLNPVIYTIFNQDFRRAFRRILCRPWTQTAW
condition: Compound concentration 10 µM
Description: PDSP Primary Binding target: ADRA2B - Compounds are tested at 10 uM concentration, plate are incubated at room temperature in the dark for 90 minutes. Reaction are stopped by vacuum filtration onto 0.3% polyethyleneimine soaked filter mats using Filtermate harvester. Scintilation cocktail is then melted onto microwave-dried filters on a hot plate and the radio activity is counted in Microbia counter.
Value expressed in %; do not type the unit.

### Prompt Could you tell me which inhibition is on file for O=C(O)Cn1c(C(=O)Nc2nc(-c3ccccc3Cl)cs2)cc2ccccc21 ?
### Response 2.63

---
### Prompt Could you tell me which inhibition is on file for COc1ccc(CNC(=O)c2cc(-c3cncc(Cl)c3)cnc2-c2ccccn2)nc1OC ?
### Response -7.15

### Prompt Next molecule: O=C(O)COc1cccc(CN(Cc2ccc(-n3cccn3)cc2)S(=O)(=O)c2cccnc2)c1
### Response -5.85

### Prompt Next molecule: C/C(=N\NC(=O)[C@@H]1C(=O)NC[C@H]1c1ccccc1)c1cccc(Br)c1
### Response -7.62

### Prompt Next molecule: O=C(Cc1ccccc1)Nc1nc2ccc(Cl)cc2c2nc(-c3ccco3)nn12
### Response 4.67
